system: Human alphaherpesvirus 1; assay: Antiviral activity against HSV1 in african green monkey Vero cells assessed as virus-induced cytopathic effect after 3 days by MTT assay; format: functional, organism-based; details: Human alphaherpesvirus 1, Vero, 72 h
What EC50 was measured for each of the following?

Answered cases to consult:
>  <COMPOUND>
C=C(C)[C@H](CCC(C)(C)O)Cc1c(O)cc(OC)c2c1O[C@H](c1ccc(O)cc1O)[C@@H](O)C2=O [KUSHENOL H]

>  <EC50>
> 300 µg/mL

$$$$
>  <COMPOUND>
COc1cc(O)c(CC=C(C)C)c2oc(-c3ccc(O)cc3)c(O)c(=O)c12 [SOPHOFLAVESCENOL]

>  <EC50>
> 300 µg/mL

$$$$
>  <COMPOUND>
C=C(C)[C@H](CCC(C)(C)O)Cc1c(O)cc(OC)c2c1O[C@H](c1ccc(O)cc1O)[C@H](O)C2=O [KUSHENOL K]

>  <EC50>
> 300 µg/mL

$$$$
>  <COMPOUND>
C=C(C)[C@H](CCC(C)(C)O)Cc1c(O)cc(OC)c2c1O[C@H](c1ccc(O)cc1O)CC2=O [KURARINOL]

>  <EC50>
60 µg/mL

$$$$
>  <COMPOUND>
C=C(C)[C@H](CC=C(C)C)Cc1c(O)cc(OC)c(C(=O)/C=C/c2ccc(O)cc2O)c1O [KURAIDIN]

>  <EC50>
> 300 µg/mL

$$$$

Now for the compound whose EC50 we want.
Req: Can you look up EC50 on Human alphaherpesvirus 1 for OC[C@H]1O[C@@H](Oc2ccc3c(c2)OC[C@H]2c4cc5c(cc4O[C@@H]32)OCO5)[C@H](O)[C@@H](O)[C@@H]1O [TRIFOLIRHIZIN] ?
Resp: > 300 µg/mL

Provenance of the data: ChEMBL document CHEMBL1151332
